Listing: activity coefficient of selected compounds
- ASSAY_REMARKS: activity coefficient (dimensionless); of the first substance listed, at infinite dilution; xn = mol fraction of the nth substance listed
- ASSAY_CONDITIONS: 323 K; Liquid; Chromatography; x1 = 0
MEASURED_PARAMETER: activity coefficient

INSERT INTO results (compound, numeric_value) VALUES
  ('CCOC(C)=O [ethyl acetate] + C[n+]1ccn(CCCC#N)c1.O=S(=O)([N-]S(=O)(=O)C(F)(F)F)C(F)(F)F', 2.1),
  ('CCCCCCCC [octane] + CCCCCCCC[n+]1ccn(C)c1.F[B-](F)(F)F', 11),
  ('c1ccccc1 [benzene] + CCCCCCCC[n+]1ccn(C)c1.F[B-](F)(F)F', 0.6),
  ('C=CCCCC [hex-1-ene] + CCCCCCCC[n+]1ccn(C)c1.F[B-](F)(F)F', 3.9),
  ('C1CCCCC1 [cyclohexane] + C[n+]1ccn(CCCC#N)c1.O=S(=O)([N-]S(=O)(=O)C(F)(F)F)C(F)(F)F', 45.9);
